system name: UniProt:J9SQF3
Sequence (J9SQF3 1-1709 isoform J9SQF3-12): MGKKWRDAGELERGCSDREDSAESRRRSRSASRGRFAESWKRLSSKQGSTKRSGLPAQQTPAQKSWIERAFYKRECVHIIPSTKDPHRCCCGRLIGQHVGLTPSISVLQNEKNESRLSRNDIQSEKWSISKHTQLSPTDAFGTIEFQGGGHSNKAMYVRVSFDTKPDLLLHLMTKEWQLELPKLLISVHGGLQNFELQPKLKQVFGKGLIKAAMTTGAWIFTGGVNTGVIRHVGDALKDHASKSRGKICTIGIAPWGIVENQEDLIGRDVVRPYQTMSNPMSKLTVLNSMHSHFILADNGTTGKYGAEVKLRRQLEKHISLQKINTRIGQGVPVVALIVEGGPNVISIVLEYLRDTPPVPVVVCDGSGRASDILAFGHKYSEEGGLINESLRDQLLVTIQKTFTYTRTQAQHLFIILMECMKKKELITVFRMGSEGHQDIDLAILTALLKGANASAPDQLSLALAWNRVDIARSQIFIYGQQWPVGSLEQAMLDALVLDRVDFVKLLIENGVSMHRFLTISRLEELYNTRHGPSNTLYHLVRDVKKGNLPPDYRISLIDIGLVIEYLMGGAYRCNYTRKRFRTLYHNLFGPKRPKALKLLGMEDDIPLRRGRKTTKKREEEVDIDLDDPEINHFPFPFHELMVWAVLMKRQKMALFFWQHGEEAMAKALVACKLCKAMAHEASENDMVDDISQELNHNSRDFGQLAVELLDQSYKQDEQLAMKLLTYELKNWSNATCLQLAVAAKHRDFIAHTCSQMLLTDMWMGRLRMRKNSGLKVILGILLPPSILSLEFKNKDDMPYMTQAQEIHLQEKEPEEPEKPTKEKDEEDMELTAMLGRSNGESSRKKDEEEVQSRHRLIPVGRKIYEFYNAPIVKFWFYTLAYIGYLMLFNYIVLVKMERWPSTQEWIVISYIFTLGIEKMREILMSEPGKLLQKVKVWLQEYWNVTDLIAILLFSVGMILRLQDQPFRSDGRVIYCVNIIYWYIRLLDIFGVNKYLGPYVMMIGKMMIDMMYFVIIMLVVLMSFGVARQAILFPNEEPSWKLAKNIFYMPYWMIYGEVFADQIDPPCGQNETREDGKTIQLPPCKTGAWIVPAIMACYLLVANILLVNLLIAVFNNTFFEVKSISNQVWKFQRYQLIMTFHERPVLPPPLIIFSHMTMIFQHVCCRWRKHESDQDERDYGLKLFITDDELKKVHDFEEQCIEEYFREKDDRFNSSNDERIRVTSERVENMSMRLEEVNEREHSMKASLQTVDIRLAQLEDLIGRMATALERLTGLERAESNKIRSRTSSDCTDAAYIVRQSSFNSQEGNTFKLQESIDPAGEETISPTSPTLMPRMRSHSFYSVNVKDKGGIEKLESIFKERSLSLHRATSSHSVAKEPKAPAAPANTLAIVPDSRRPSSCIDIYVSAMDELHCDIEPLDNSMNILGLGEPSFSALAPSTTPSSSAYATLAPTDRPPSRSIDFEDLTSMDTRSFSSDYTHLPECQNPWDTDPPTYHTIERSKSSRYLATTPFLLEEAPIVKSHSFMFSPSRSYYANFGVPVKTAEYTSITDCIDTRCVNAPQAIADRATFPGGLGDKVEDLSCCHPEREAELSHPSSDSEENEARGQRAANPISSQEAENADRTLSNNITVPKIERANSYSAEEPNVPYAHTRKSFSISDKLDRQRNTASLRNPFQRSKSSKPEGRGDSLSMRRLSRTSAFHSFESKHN
test: TRPM3 ion channel driven Ca2+ uptake (Fluo-4 AM assay, pregnenolone sulfate stimulated)
measurement parameters: TRPM3 overexpressing flip-in HEK293 cells, channel opened with pregnenolone sulfate (PS) 50 μM, 2.4 mM Ca2+
pIC50: −log10 of the molar value.
parameter measured: pIC50

compound: Cc1cc2ccc(OCC(F)F)cn2c1C(=O)NC1CNCCC1(F)F (single isomer, unassigned) [Cpd 027 - En1]
meas value: 4.70 to 6.00
--
compound: Cc1cc2ccc(OCc3ccccc3F)cn2c1C(=O)NC(C)(CO)CO [Cpd 006]
meas value: > 6.00
--
compound: Cc1cc2ccc(OCc3cnccn3)cn2c1C(=O)NC(CO)CC(F)(F)F (single isomer, unassigned) [Cpd 041 - En2]
meas value: < 4.70
--
compound: Cc1ncc(COc2ccc3cc(C)c(C(=O)NC(C)(CO)C(N)=O)n3c2)s1 (single isomer, unassigned) [Cpd 029 - En1]
meas value: > 6.00
--
compound: Cc1cc2ccc(OCc3ccccc3F)cn2c1C(=O)NC(C)(CO)C(N)=O (single isomer, unassigned) [Cpd 005 - En2]
meas value: > 6.00
--
compound: Cc1cc2ccc(OCC3CC3)cn2c1C(=O)NC(C)(CO)C(N)=O (single isomer, unassigned) [Cpd 019 - En2]
meas value: 4.70 to 6.00
--
compound: Cc1cc2ccc(OCc3ccccn3)cn2c1C(=O)NC1CNCCC1(F)F (single isomer, unassigned) [Cpd 017 - En2]
meas value: < 4.70
--
compound: Cc1cc2ccc(OCc3ccccc3F)cn2c1C(=O)NC1(CO)CCNC1=O (single isomer, unassigned) [Cpd 007 - En1]
meas value: > 6.00
--
compound: CC(=O)C(C)NC(=O)c1c(C)cc2ccc(OCC(F)F)cn12 (single isomer, unassigned) [Cpd 028 - En1]
meas value: < 4.70
--
compound: Cc1cc2ccc(OCc3scnc3C)cn2c1C(=O)NC1(CO)CCOCC1 [Cpd 001]
meas value: 4.70 to 6.00
--
compound: Cc1cc2ccc(OCc3cccnc3C(F)(F)F)cn2c1C(=O)NC1(CO)CCNC1=O (single isomer, unassigned) [Cpd 039 - En2]
meas value: 4.70 to 6.00
--
compound: COc1ncccc1COc1ccc2cc(C)c(C(=O)NC(CO)CC(F)(F)F)n2c1 (single isomer, unassigned) [Cpd 043 - En2]
meas value: < 4.70
--
compound: Cc1cc2ccc(OCc3ccccc3F)cn2c1C(=O)NC(C)(CO)C(N)=O (single isomer, unassigned) [Cpd 005 - En1]
meas value: > 6.00
--
compound: Cc1cc2ccc(OCc3cccnc3)cn2c1C(=O)NC(CO)CC(F)(F)F (single isomer, unassigned) [Cpd 042 - En1]
meas value: > 6.00
--
compound: Cc1cc2ccc(OCc3cnccn3)cn2c1C(=O)NC1(CO)CCNC1=O (single isomer, unassigned) [Cpd 046 - En1]
meas value: > 6.00
--
compound: Cc1cc2ccc(OCc3cccnc3)cn2c1C(=O)NC1(CO)CCNC1=O (single isomer, unassigned) [Cpd 037 - En2]
meas value: 4.70 to 6.00
--
compound: Cc1cc2ccc(OCc3ccccc3)cn2c1C(=O)NC(CO)C(N)=O (single isomer, unassigned) [Cpd 034 - En2]
meas value: > 6.00
--
compound: Cc1cc2ccc(OCc3ccccn3)cn2c1C(=O)NC1(CO)CCNC1=O (single isomer, unassigned) [Cpd 016 - En1]
meas value: > 6.00
--
compound: Cc1cc2ccc(OCC(F)F)cn2c1C(=O)NC(C)(CO)CO [Cpd 025]
meas value: 4.70 to 6.00
--
compound: Cc1cc2ccc(OCc3ccccn3)cn2c1C(=O)NC(C)(CO)C(N)=O (single isomer, unassigned) [Cpd 014 - En2]
meas value: 4.70 to 6.00
--
compound: COc1ncccc1COc1ccc2cc(C)c(C(=O)NC3(CO)CCNC3=O)n2c1 (single isomer, unassigned) [Cpd 038 - En1]
meas value: > 6.00
--
compound: Cc1cc2ccc(OCc3ccccc3)cn2c1C(=O)NC(CO)C(N)=O (single isomer, unassigned) [Cpd 034 - En1]
meas value: > 6.00
--
compound: Cc1ncc(COc2ccc3cc(C)c(C(=O)NC(C)(CO)C(N)=O)n3c2)s1 (single isomer, unassigned) [Cpd 029 - En2]
meas value: 4.70 to 6.00
--
compound: Cc1cc2ccc(OCc3ccccc3)cn2c1C(=O)NC(C)(CO)CC(F)F (single isomer, unassigned) [Cpd 035 - En2]
meas value: 4.70 to 6.00
--
compound: COc1ncccc1COc1ccc2cc(C)c(C(=O)NC(CO)CC(F)(F)F)n2c1 (single isomer, unassigned) [Cpd 043 - En1]
meas value: > 6.00
--
compound: Cc1cc2ccc(OCc3ccccc3F)cn2c1C(=O)NC1(CO)CCNC1=O (single isomer, unassigned) [Cpd 007 - En2]
meas value: 4.70 to 6.00
--
compound: Cc1cc2ccc(OCc3ccccc3)cn2c1C(=O)NC(C)(CO)CC(F)F (single isomer, unassigned) [Cpd 035 - En1]
meas value: > 6.00
--
compound: Cc1cc2ccc(OCC3CC3)cn2c1C(=O)NC(C)(CO)CO [Cpd 020]
meas value: > 6.00
